System: PPARg:RXRa 90nM:30nM, anti-RXR (NR concentration 90 nM, RXRa partner concentration 30 nM)
Test Method Notes: PBM binding z-score (relative to random genomic background probes); higher = stronger binding; sequences stand for … in GC…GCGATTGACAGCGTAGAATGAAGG
Parameter threshold = 2. Response is label 1 when PBM binding z-score meets or exceeds it, else label 0.

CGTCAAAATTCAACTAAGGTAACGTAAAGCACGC ... label 0
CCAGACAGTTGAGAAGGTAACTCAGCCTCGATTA ... label 0
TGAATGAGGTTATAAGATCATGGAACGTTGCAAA ... label 0
ATTCGGAGGACAAAGGTCAGAGCTACGCCAGTGA ... label 1
CCTAGTTTGTCAAGGTCACACACGCTATAGGTAC ... label 0

Consider the record given below.
(Q) Could you tell me if the measured PBM binding z-score of "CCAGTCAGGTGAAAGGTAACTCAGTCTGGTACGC" reaches 2 or more?
(A) label 1

* * *

Test system: RARa homodimer (NR concentration 270 nM)
Test Method Notes: PBM binding z-score (relative to random genomic background probes); higher = stronger binding; sequences stand for … in GC…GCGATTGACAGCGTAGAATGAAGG
Readout Name: PBM binding z-score
Lab note: record the figure alone, no unit after it.

Illustrative cases are given below, each with its answer.
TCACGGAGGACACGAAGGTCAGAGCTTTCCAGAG ... 0.266
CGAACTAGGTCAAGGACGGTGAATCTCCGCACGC ... -0.265

(Q) Recall and state the measured PBM binding z-score for "CGAACTAGGTCATAGACAGGACAGTGAATAGTAA" .
(A) 0.165

(Q) Answer with the recorded PBM binding z-score of "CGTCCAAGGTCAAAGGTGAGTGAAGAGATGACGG" only.
(A) 1.07

(Q) Return PBM binding z-score (reported value) for this sequence: "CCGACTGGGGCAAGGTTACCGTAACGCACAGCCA"
(A) -0.534

(Q) Find the measured PBM binding z-score of "ATCGAAAGGTCGACGAGGTGCGTATACACCGTTT" and report it.
(A) -0.212

* * *

Tested on: RARa:RXR (NR concentration 270 nM, RXRa partner concentration 90 nM)
Test Method Notes: PBM binding z-score (relative to random genomic background probes); higher = stronger binding; sequences stand for … in GC…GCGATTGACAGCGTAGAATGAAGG
A collection of sequences and their measured PBM binding z-score
In your answer, state the number alone without any accompanying words.

Past entries and their recorded results:
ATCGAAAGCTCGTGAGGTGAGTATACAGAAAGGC ... -0.104
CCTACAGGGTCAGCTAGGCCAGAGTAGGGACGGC ... 2.68
CCTACTGGGCCACGAATGGTCATTGATTCAGTGA ... -0.385

(Q) Output PBM binding z-score of "CCTCGGAGGACAGAAGTTCAGAGCTGTCCGCTTT"
(A) -0.223

(Q) Quote PBM binding z-score reported for "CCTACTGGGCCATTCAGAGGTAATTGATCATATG" please.
(A) -0.179

(Q) Give the measured PBM binding z-score for "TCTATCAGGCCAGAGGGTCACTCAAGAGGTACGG"
(A) 2.39

* * *

Tested on: RXRa homodimer (NR concentration 180 nM)
Test Method Notes: PBM binding z-score (relative to random genomic background probes); higher = stronger binding; sequences stand for … in GC…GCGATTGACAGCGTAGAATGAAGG
Assign met to entries whose PBM binding z-score meets or exceeds 0.7; assign not met to the rest.

Some solved entries appear below for comparison.
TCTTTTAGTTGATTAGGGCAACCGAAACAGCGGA ... met
TCTTGTAGATCAAGCAGGTTAGGAAAGCCTGAGT ... not met
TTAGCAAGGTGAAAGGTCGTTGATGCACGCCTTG ... met
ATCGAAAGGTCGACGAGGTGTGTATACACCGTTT ... met

Here is another sequence to look at.
(Q) Answer whether PBM binding z-score of "GATACAGGGTAAGCTAGAGGCCAGAGTATGGAAA" is greater than or equal to 0.7.
(A) not met

* * *

Tested on: THRa:RXRa (NR concentration 90 nM, RXRa partner concentration 90 nM)
Test Method Notes: PBM binding z-score (relative to random genomic background probes); higher = stronger binding; sequences stand for … in GC…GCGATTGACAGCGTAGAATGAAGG
Categories are defined by ranges of PBM binding z-score, namely lo: < 0.8; med: ≥ 0.8 and < 2; hi: ≥ 2

Reference set, count: 8
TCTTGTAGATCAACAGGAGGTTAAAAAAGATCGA ... med
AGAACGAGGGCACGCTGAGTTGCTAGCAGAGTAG ... med
ACAGACAGGTGAATGAAGGTAACTCAGCTGGACG ... hi
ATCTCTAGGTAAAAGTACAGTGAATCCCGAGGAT ... lo
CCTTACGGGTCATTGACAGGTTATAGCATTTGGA ... hi
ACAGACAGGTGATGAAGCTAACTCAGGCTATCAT ... lo
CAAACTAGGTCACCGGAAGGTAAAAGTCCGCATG ... hi
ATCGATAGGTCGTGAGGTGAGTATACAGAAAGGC ... hi

(Q) Class (by measured PBM binding z-score) for "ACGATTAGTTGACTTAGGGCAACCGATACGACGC"
(A) med

(Q) Tag the class for "TCTTGTAGATCAACAGCAGGTTAAGAAAGATCGA"
(A) lo

(Q) Which of the defined bands does the recorded PBM binding z-score of "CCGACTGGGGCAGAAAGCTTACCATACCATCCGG" sit within?
(A) lo

(Q) In plain terms, what class is "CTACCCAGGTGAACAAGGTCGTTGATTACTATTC" ?
(A) hi

(Q) Class? Entry: "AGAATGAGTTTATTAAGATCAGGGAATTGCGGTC"
(A) lo

* * *

System: RXRa homodimer (NR concentration 180 nM)
Test Method Notes: PBM binding z-score (relative to random genomic background probes); higher = stronger binding; sequences stand for … in GC…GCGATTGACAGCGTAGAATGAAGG
Threshold check on PBM binding z-score: at or above 4 gives Met, strictly below gives Not met.

(Q) Please check the record "ATCTCTAGGTAAAAGTTCAGTGAATCCCGAGGAT" and state if its PBM binding z-score is at or above 4.
(A) Not met

* * *

# PBM binding z-score annotations
System: RARg homodimer (NR concentration 270 nM)
Test Method Notes: PBM binding z-score (relative to random genomic background probes); higher = stronger binding; sequences stand for … in GC…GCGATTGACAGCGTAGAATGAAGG
# respond with the number and nothing more

Recorded PBM binding z-score, per entry:
GCTATTAGTCGAAAGGGCAACCGAATGATTCTCG ... 1.5
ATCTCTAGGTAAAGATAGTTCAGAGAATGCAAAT ... 0.767
CGTCCAAGGTCAAGGTCAGTGATAGAGACTCGAA ... 7.67
TAGCCTATGTCATGCGGGCCAGTATAGTGTCGGC ... -0.059
TGATTGAGGTTATAAGATCAGGGAACGTTGCAAA ... 1.13

(Q) Note down PBM binding z-score recorded for "AATACAGGGTCATCGTAGGCAAGAGTACGCACAG"
(A) 5.07

* * *

Test system: PPARg:RXRa 30nM:10nM, anti-RXR (NR concentration 30 nM, RXRa partner concentration 10 nM)
Test Method Notes: PBM binding z-score (relative to random genomic background probes); higher = stronger binding; sequences stand for … in GC…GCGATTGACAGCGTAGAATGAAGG
Readout Name: PBM binding z-score
Answer as a number with no unit attached.

TCATATAGGCAAAAGGTGAAAGTCGGTGTGGTAA ... 6.88
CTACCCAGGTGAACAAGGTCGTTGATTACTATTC ... 0.076
AGAATGAGGTTATTAAAATCAGGGAATTGCGGTC ... 0.509
CCCTACGGGTCAAGGTTATAGCACGGGTGGTACG ... 1.1
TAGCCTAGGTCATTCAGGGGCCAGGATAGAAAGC ... 0.232

(Q) For PPARg:RXRa 30nM:10nM, anti-RXR (NR concentration 30 nM, RXRa partner concentration 10 nM), give the measured PBM binding z-score of the entry "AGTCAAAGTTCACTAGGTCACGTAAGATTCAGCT"
(A) 4.81

(Q) Tell me its PBM binding z-score on PPARg:RXRa 30nM:10nM, anti-RXR (NR concentration 30 nM, RXRa partner concentration 10 nM): "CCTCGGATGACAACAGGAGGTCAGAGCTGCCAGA"
(A) -0.476

(Q) Write down measured PBM binding z-score (PPARg:RXRa 30nM:10nM, anti-RXR (NR concentration 30 nM, RXRa partner concentration 10 nM)) for this sequence. "GTACCAAGGTGCATAGGTCGTTGATGAGTAGGCG"
(A) 0.013

(Q) Lab note: record PBM binding z-score of "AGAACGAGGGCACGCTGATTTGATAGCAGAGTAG" tested on PPARg:RXRa 30nM:10nM, anti-RXR (NR concentration 30 nM, RXRa partner concentration 10 nM).
(A) 0.45

(Q) Using PPARg:RXRa 30nM:10nM, anti-RXR (NR concentration 30 nM, RXRa partner concentration 10 nM) as the test system, report measured PBM binding z-score of "TCTTGTAGATCAAAAGAGGTTAAGAAAGTGCGCT" .
(A) 2.62

(Q) Report value: PBM binding z-score, system: PPARg:RXRa 30nM:10nM, anti-RXR (NR concentration 30 nM, RXRa partner concentration 10 nM), sequence: "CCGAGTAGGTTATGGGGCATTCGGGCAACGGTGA"
(A) 2.16

(Q) State, for PPARg:RXRa 30nM:10nM, anti-RXR (NR concentration 30 nM, RXRa partner concentration 10 nM), measured PBM binding z-score of the sequence listed here: "AAAATGAGGTTACCAAAGATCAGGGAAACGCTTG"
(A) 1.2

(Q) Answer briefly: PBM binding z-score recorded on PPARg:RXRa 30nM:10nM, anti-RXR (NR concentration 30 nM, RXRa partner concentration 10 nM) for "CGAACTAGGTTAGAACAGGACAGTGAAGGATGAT"
(A) 0.448

(Q) Report PBM binding z-score on PPARg:RXRa 30nM:10nM, anti-RXR (NR concentration 30 nM, RXRa partner concentration 10 nM) for this entry: "AGTCAAAGTTCGTCTAGGTAACGTAAGATATGCT"
(A) 1.44

(Q) Recall the reported PBM binding z-score of "AGAATGAGGTTAAGAACAGGGAAACAGAATACAT" when tested on PPARg:RXRa 30nM:10nM, anti-RXR (NR concentration 30 nM, RXRa partner concentration 10 nM).
(A) 0.811

(Q) Report its PBM binding z-score with PPARg:RXRa 30nM:10nM, anti-RXR (NR concentration 30 nM, RXRa partner concentration 10 nM) as the test system: "CTACCAAGGTGAACAAGTTCGTTGATTACTATTC"
(A) -0.0232

(Q) Using PPARg:RXRa 30nM:10nM, anti-RXR (NR concentration 30 nM, RXRa partner concentration 10 nM) as the test system, report measured PBM binding z-score of "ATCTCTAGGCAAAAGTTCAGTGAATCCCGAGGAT" .
(A) 5.06
